Test system: SJCRH30 (human alveolar rhabdomyosarcoma) cells
Assay: MTT cell viability assay in SJCRH30 cells
Type: cell-based
Conditions: Homo sapiens, Rhabdomyosarcoma cell, 24 h, SJ-S drugs, SJCRH30 cells, read-out: IC50(μM) RMS
ASSAY_METRIC: IC50 (µM)
Numeric only. Scale: µM

[
  {
    "MOLECULE": "CC1(C)CCC(c2ccc(Cl)cc2)=C(CN2CCN(c3ccc(C(=O)NS(=O)(=O)c4ccc(N[C@H](CCN5CCOCC5)CSc5ccccc5)c(S(=O)(=O)C(F)(F)F)c4)cc3)CC2)C1 [Navitoclax]",
    "OBSERVED_VALUE": 0.764
  },
  {
    "MOLECULE": "O=C(/C=C/c1cccc(S(=O)(=O)Nc2ccccc2)c1)NO [Belinostat]",
    "OBSERVED_VALUE": 0.146
  },
  {
    "MOLECULE": "CCc1cc2c(cc1N1CCC(N3CCOCC3)CC1)C(C)(C)c1[nH]c3cc(C#N)ccc3c1C2=O [Alectinib]",
    "OBSERVED_VALUE": 3.21
  }
]

Next molecule, please.
input: Quick one: IC50 for CCn1cc(-c2ccnc3[nH]c(-c4cccc(CN(C)C)c4)cc23)c(-c2ccc(NC(=O)N(C)C)cc2)n1 [GSK1070916] ?
output: 1.4
